target: S1P1 (membranes prepared from S1P1/CHO cells) (Homo sapiens (Human), UniProt P21453); test: Receptor [35S] GTPγS binding assay (S1P1 GTPγS); type: biochemical; details: [35S]GTPγS, S1P1/CHO cell membranes; read-out: GTPγS S1P1 EC50
Sequence (P21453 whole entry): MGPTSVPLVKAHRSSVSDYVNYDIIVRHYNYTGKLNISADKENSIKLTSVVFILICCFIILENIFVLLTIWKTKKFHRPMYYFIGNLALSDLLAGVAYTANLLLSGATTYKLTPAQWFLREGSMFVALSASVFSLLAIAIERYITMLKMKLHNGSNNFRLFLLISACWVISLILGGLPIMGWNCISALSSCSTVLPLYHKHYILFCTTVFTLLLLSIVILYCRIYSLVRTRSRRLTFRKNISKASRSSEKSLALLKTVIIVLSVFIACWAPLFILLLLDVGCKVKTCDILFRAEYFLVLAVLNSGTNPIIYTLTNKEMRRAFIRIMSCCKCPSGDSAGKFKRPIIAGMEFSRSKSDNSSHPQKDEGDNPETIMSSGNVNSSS
experimental.readout: EC50 (nM)
I only need the number, in nM, no unit after it.

Below are worked cases with known answers.
molecule	EC50 [nM]
COCCCCCC1CCc2cc([C@H]3CC[C@](N)(COP(=O)(O)O)C3)ccc2C1 (single isomer, unassigned) [Example 689]	5.7
COCCCCCC1CCc2cc([C@H]3CC[C@](N)(COP(=O)(O)O)C3)ccc2C1 (single isomer, unassigned) [Example 690]	21.4
COc1cccc(CCC2CCc3cc([C@H]4CC[C@](N)(COP(=O)(O)O)C4)ccc3C2)c1 (single isomer, unassigned) [Example 694]	38.6

Okay, now this molecule:
Query (molecule): CCOCCCC1CCc2cc([C@H]3CC[C@](N)(COP(=O)(O)O)C3)ccc2C1 (single isomer, unassigned) [Example 696] ; field requested: EC50
1.2
